Molecular target: T1, cynomolgus monkey CD3 on the surface of expanded monkey T cells (cynomolgus monkey, UniProt Q95LI5 22-198; Q95LI8 22-171; Q95LI7 23-181)
T1 construct: whole, on cells; Endogenous CD3 within the TCR-CD3 complex on T cells expanded from cynomolgus monkey PBMC
T1 sequence (Q95LI5 22-198, chain 1 of 3): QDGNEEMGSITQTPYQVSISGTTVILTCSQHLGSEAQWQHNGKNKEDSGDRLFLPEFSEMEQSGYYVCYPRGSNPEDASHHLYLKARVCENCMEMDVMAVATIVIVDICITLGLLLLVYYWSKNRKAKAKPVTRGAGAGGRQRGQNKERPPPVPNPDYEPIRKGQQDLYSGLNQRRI
T1 sequence (Q95LI8 22-171, chain 2 of 3): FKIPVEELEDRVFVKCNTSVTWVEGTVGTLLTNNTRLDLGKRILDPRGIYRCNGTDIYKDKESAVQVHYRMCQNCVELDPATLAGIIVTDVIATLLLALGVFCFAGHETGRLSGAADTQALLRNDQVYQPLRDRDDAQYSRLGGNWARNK
T1 sequence (Q95LI7 23-181, chain 3 of 3): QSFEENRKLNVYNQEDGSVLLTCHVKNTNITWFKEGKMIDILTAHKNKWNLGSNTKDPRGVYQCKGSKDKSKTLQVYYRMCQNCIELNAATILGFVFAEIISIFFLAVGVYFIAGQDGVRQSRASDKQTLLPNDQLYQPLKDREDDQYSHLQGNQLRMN
Assay: FACS, monkey T cells, hybridoma screening
Each record here notes measured log10 of Mean fluorescence intensity.
Please note: log10 values; quantity Mean fluorescence intensity; unit MFI.

Completed entries (count: 4):
binder	resultValue
5-40.21 murine hybridoma antibody (supernatant) (antibody, V domains shown, Tested as hybridoma supernatant) VH: QVQLQQPGSELVRPGASVKLSCKASGYTFTSYWMHWVKQRPGQGLEWIGNTYPGSGSTNYDEKFKSKATLTVDSSSSTAYMQLSSLTSEDSAVYYCTRDRYGVYYFDYWGQGTTLTVSS VL: DIVMSQSPSSLAVSAGEKVTMSCKSSQSLLNSRTRKNYLAWYQQKPGQSPKLLIYWASTRESGVPDRFSGSGSGTDFTLTISSVQAEDLAVYYCTQSYNLRTFGGGTKLEIK	4.18
1-22.6 murine hybridoma antibody (supernatant) (antibody, V domains shown, Tested as hybridoma supernatant) VH: QIPLVQSGPELKKPGETVKISCKTSGYTFTSYGMSWVKQAPGKGLKWMGWINTYSGVPTYADDFKGRFVFSLDTSASTAFLQINNLKNEDTATYFCARLKNNPFCWGQGSTLTVFS VL: DVLMTQSPLSLPVRLGDQASISCRSSQLILHSNGNTYLEWYLQKPGQSPKLLIYKVSNRFSGVPDRFSGSGSGTDFTLKISRVEAEDLGVYYCFQGSHFPWTFGGGTKLEIK	4.32
6-44.5 murine hybridoma antibody (supernatant) (antibody, V domains shown, Tested as hybridoma supernatant) VH: EVQLQQSGPELVKPGASVKMSCKASGHTFTSHIMHWVKQKPGQGLEWIGYINPNNDRTEYSEKFKGKATLTSDKSSSTAYMELSSLTSEDSAVYYCAGEAYYSNSLYAMDYWGQGTSVTVSS VL: DIVMSQSPSSLAVSAGEKVTMSCKSSQSLFNSRTRKNYLAWYQQKPGQSPELLIYWASTRESGVPVRFTGSGSGTDFTLTISSVQAEDLAVYYCKQSYYLRTFGGGTKLEVK	4.56
6-35.22 murine hybridoma antibody (supernatant) (antibody, V domains shown, Tested as hybridoma supernatant) VH: EVKLVESGGGLVQPGASLSLSCAASGFTFTDYYMSWVRQPPGKALEWLAMSRNKAKGHTIEYSSSVKGRFTISRDNSQSILYLQMNALRAEDSATYYCARDTYESYDGYFDVWGAGTTVIVSS VL: DIVMSQSPSSLAVSAGETVTMSCKSSQSLFNSRSRKNYLAWYQQKPGQTPKLLIYWASIRESGVPDRFTGSGSGTDFTLTISSVQAEDLAVYYCKQSYYLYTFGSGTKLEIK	4.51

Query string: Give the measured log10 of Mean fluorescence intensity of 7-35.6 murine hybridoma antibody (supernatant) (antibody, V domains shown, Tested as hybridoma supernatant) VH: EVQLVESGGGLVQPKGSLKLSCAASGFTFNTYAMNWVRQAPGKGLEWVGRIRSKINNYATYYGDSVKDRFTISRDDSQSMFYLQMNNLKTEDTAMYYCVIHENYGSISWFAYWGQGTLVTVSA VL: QAVVTQESTLTTSPGETVTLTCRSSTGAVTTSNYANWVQEKPDHLFTGLIGGTNNRAPGVPARFSGSLIGDKAALTITGAQTEDEAIYFCALWYSNHWVFGGGTKLTVL .
Result string: 3.22

Query string: Give the measured log10 of Mean fluorescence intensity of 5-7.13 murine hybridoma antibody (supernatant) (antibody, V domains shown, Tested as hybridoma supernatant) VH: QVQLQQPGTELVKPGASVKLSCKASGYTFTSYWVHWVKQRPGQGLEWIGNINPSDGVTNYNEKFKSRATLTVDKSSSTAYMQLSSLTSEDSAVYYCTRDAYGQYYFDDWGQGTTLTVSS VL: DIVMSQSPSSLVVSAGEKVTMSCKSSQSLLNSRTRKNYLAWYQQKPGQSPKLLIYWASVRDSGVPDRFTGSGSGTDFTLTISNVQAEDLAVYYCIQSYYLRTFGGGTILEIK .
Result string: 4.21
